List of growth inhibition values.
test: NCI Yeast Anticancer Drug Screen. Data for the mec2-1 strain (AID 157)
recorded.conditions: S. cerevisiae mec2-1 strain, at 50.0 µM, stronger effect = higher value
This is part of a sample that, as a whole, favours compounds with a hit. Of some 79,000 tested, about 15% had one in any assay.

molecule	growth inhibition [%]
C1=N/C=C\C=C/c2ccc[n+](CCCCC[n+]3ccccc3-c3ccccn3)c21	63.5
CCC(=O)Nc1ncnc2ncn(C(=O)CC)c12	-48.2
CCCCOc1cc(C(=O)O)ccc1[N+](=O)[O-]	-19.4
O=C(NC1COB(c2cccc([N+](=O)[O-])c2)OC1c1ccc([N+](=O)[O-])cc1)C(Cl)Cl (stereo not given)	27.9
N=c1c2ccccc2nc2oc3ccccc3n12	12
Cc1cccc(C)c1NC(=S)N(CCC#N)Cc1ccccc1	1.45
CCN1C(=O)C(N=[N+]=[N-])(c2ccccc2)C(=O)c2ccccc21 (stereo not given)	-8.5
COc1ccc2c(c1)OC[C@@H]1c3cc(O)c(OCc4ccccc4)cc3O[C@]21C	40.8
CC(C)(C)CC(C)(C)c1ccc(OCc2ccc(C(F)(F)F)cc2)cc1	10.9
CN(C)C=Nc1cc2c3c(c1)CCCN3CCC2	-0.5
Nc1c(S(N)(=O)=O)cc(S(N)(=O)=O)cc1S(N)(=O)=O	-20.6
Cc1cccc(N(CCOS(C)(=O)=O)CCOS(C)(=O)=O)c1	-2.2
Nc1cc(Cl)c(N(CCO)C2=NCCN2)c(Cl)c1	-3.25
O=S(=O)(O)Cc1ccc(CS(=O)(=O)O)cc1	-2.1
CC(=O)O[C@@H]1[C@@H](C)[C@]2(CC(c3ccoc3)OC2O)C2CCC3O[C@]3(C)[C@]2(C)[C@@H]1OC(C)=O (stereo not given in full)	-20.1
O=C(O)COc1c(Cl)cc(Cl)cc1Cl	-37
CCCC(=O)N(CC)CC	-8.6
CCC1=C(O)C(=O)C(C)(C)C1=O	-5.2
CC(C)=CCc1c(O)ccc2ccc(=O)oc12	20.1
O=NNc1ccc(-c2ccc(NN=O)cc2)cc1	0.75
